Assay: Inhibition of skin tumor promoter -induced mouse epidermal ornithine decarboxylase (ODC) activity on TPA-induced mouse epidermis at a dose of 1.7(nmol)
Assay type: functional
MEASURED METRIC: inhibition (%)

>>> result_number("COCCOCCOC(=O)/C=C(C)/C=C/C=C(C)/C=C/C1=C(C)CCCC1(C)C")
70

P. CC1=C(/C=C/C(C)=C/C=C/C(C)=C/c2nn[nH]n2)C(C)(C)CCC1
Q. CC1=C(/C=C/C(C)=C/C=C/C(C)=C/C(=O)O)C(C)(C)CCC1
Select one: P or Q . Criterion: greater recorded inhibition. Use the label to indicate which entry you chose.
Q

----------
Assay: Inhibition of skin tumor promoter -induced mouse epidermal ornithine decarboxylase (ODC) activity on TPA-induced mouse epidermis at a dose of 170(nmol)
Assay type: functional
MEASURED METRIC: inhibition (%)

As a guide, the following entries are already answered.
>>> result_number("COCCOCCOC(=O)/C=C(C)/C=C/C=C(C)/C=C/C1=C(C)CCCC1(C)C")
97
>>> result_number("CC(=O)Oc1cccc(/C=C/C=C(C)/C=C/C2=C(C)CCCC2(C)C)c1")
92
>>> result_number("CCC1=C(/C=C/C(C)=C/C=C/C(C)=C/C(=O)O)C(C)(C)CCC1")
87

P. CCOC(=O)/C=C(C)/C=C/C=C(C)/C=C/C1=CC2CCC1C2 (stereo not given)
Q. CC1=C(/C=C/C(C)=C/C=C/C(C)=C/c2nn[nH]n2)C(C)(C)CCC1
Could you kindly indicate whether P or Q has the higher inhibition value? To answer, give the label that identifies your chosen option.
P

----------
Assay: Inhibition of skin tumor promoter -induced mouse epidermal ornithine decarboxylase (ODC) activity on TPA-induced mouse epidermis at a dose of 17(nmol)
Type: functional
MEASURED METRIC: inhibition (%)

Reference set (3 entries):
>>> result_number("CCC1=C(/C=C/C(C)=C/C=C/C(C)=C/C(=O)O)C(C)(C)CCC1")
86
>>> result_number("CC1=C(/C=C/C(C)=C/C=C/C(C)=C/c2nn[nH]n2)C(C)(C)CCC1")
13
>>> result_number("CC(=O)Oc1cccc(/C=C/C=C(C)/C=C/C2=C(C)CCCC2(C)C)c1")
46

A. COCCOCCOC(=O)/C=C(C)/C=C/C=C(C)/C=C/C1=C(C)CCCC1(C)C
B. CCOC(=O)/C=C(C)/C=C/C=C(C)/C=C/C1=CC2CCC1C2 (stereo not given)
Kindly compare A with B and tell me which has the lower inhibition figure. In your reply, give the label of the chosen option.
B
(B: 63%, A: 92%)

----------
Test: Inhibition of skin tumor promoter -induced mouse epidermal ornithine decarboxylase (ODC) activity on TPA-induced mouse epidermis at a dose of 1.7(nmol)
Assay type: functional
MEASURED METRIC: inhibition (%)

>>> result_number("CCC1=C(/C=C/C(C)=C/C=C/C(C)=C/C(=O)O)C(C)(C)CCC1")
66

A. CC(=O)Oc1cccc(/C=C/C=C(C)/C=C/C2=C(C)CCCC2(C)C)c1
B. CCOC(=O)/C=C(C)/C=C/C=C(C)/C=C/C1=CC2CCC1C2 (stereo not drawn)
Response body: label of entry with the larger inhibition; valid values A , B . State your choice using its label.
B
